Provenance of the data: patent US10751353B2

Protocol Summary: Preclinical PK study: plasma and muscle concentrations of trehalose after IV bolus and oral gavage
Assay type: in vivo, male Sprague-Dawley (SD) rats
Measurement Context: male, Sprague-Dawley, rat, in vivo, iv, 1000 mg/kg, AUC0-last
Measurement Name: AUC(0-t) (µg·h/mL)
Only the number, expressed in µg·h/mL, is required.

// query Note down AUC(0-t) recorded for OC[C@H]1O[C@H](O[C@H]2O[C@H](CO)[C@@H](O)[C@H](O)[C@H]2O)[C@H](O)[C@@H](O)[C@@H]1O [trehalose]
// result 778
